Exercise: for every item that follows, state its recorded GI50.
# Tested on: MALME-3M melanoma
# Protocol text: NCI tumour cell line growth inhibition, 48 h

COc1cc2ncnc(Nc3ccc4c(cnn4Cc4ccccc4)c3)c2cc1OC: > 25 µM

Please supply GI50 for each of the following items, keeping them in order.
1. COC(=O)/C=C1/SC(N2N=C(c3cccs3)CC2c2ccc(F)cc2)=NC1=O (configuration not stated)
2. N=C(N)c1ccc(-c2ccc(-c3cccs3)s2)s1
3. CCc1cc2ncc(CN3CCN(c4ccc(C(=O)NC)nc4)CC3)cc2[nH]c1=O
4. COc1cc(C2C3=C(COC3=O)Nc3c2ccc2c3CCCC2)cc2c1OCO2 (configuration not stated)
5. COc1cc(-c2cc(/C=C/C(=O)c3ccc(Cl)c(Cl)c3)[nH]n2)cc(OC)c1OC
6. C/C(=N\NC(=S)N1CC2CCC(CC2)C1)c1cccc(C)n1

OUT:
1. 2.44 µM
2. 1.71 µM
3. > 100 µM
4. 81.5 µM
5. 29.2 µM
6. 0.605 µM

Please supply GI50 for each of the following items, keeping them in order.
1. c1cncc(C2Nc3cccc4cccc(c34)N2)c1
2. CCCCC(=O)N/N=C/c1c(O)ccc2ccccc12
3. CN(C)CC(C(=O)Cc1ccccc1)c1ccccc1 (configuration not stated)
4. CCCNC(=O)c1ccc(Cl)cc1Cl
5. CC(=O)C1=C(C)N(C)C2(O)C=CC(=O)C3=C(O)c4ccccc4C(=O)C312 (configuration not stated)

OUT:
["25.6 µM", "3.06 µM", "1.74 µM", "> 100 µM", "1.51 µM"]
